STUDY_TARGET: IRAK4 (Homo sapiens)
Sequence (Q9NWZ3 1-460): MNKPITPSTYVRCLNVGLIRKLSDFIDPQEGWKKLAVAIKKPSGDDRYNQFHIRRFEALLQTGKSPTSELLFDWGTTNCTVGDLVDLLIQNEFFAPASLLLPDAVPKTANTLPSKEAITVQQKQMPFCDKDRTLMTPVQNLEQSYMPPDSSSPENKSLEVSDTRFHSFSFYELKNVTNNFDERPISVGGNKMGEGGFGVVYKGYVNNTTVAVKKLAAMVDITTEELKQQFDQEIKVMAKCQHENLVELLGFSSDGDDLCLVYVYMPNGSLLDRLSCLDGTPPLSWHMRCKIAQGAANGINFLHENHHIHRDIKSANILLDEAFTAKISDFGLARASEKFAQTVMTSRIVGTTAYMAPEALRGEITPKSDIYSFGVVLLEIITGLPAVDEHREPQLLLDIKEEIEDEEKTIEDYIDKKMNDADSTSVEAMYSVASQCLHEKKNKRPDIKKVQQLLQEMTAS
ASSAY_REMARKS: mRNA display affinity selection against IRAK4, NGS abundance
Format: binding
Set-up: acids 1-460; NP_057207.2) was purchased from Carna Biosciences; purchased Carna Biosciences (Kobe, Japan)
CONDITION_PARAMETERS: IRAK4 selection pulldown (-); Top100 selection hits, NGS
Hi! Just check whether Library fraction is below 0.0004. Below gives YES, equal or above gives NO.

// known answers, use as guide
A record lists SLLWKRRIMK . Is its Library fraction below 0.0004?
NO

A record lists SLLWKRRVYC . Is its Library fraction below 0.0004?
NO

A record lists TMLWKRRIHA . Is its Library fraction below 0.0004?
NO

A record lists CQCWNRRNWT . Is its Library fraction below 0.0004?
YES

A record lists RLLWRRRNYA . Is its Library fraction below 0.0004?
NO

A record lists TQRVRNRCYK . Is its Library fraction below 0.0004?
NO

Others:
A record lists RQRWRGRKYH . Is its Library fraction below 0.0004?
YES

A record lists TMKRIVINWGWG . Is its Library fraction below 0.0004?
YES

A record lists SQLWNRRLYK . Is its Library fraction below 0.0004?
NO

A record lists RLCYKRRNWQ . Is its Library fraction below 0.0004?
YES

A record lists GMKRQFITWHWT . Is its Library fraction below 0.0004?
YES

A record lists SLRWKNRNHK . Is its Library fraction below 0.0004?
YES

A record lists SQRWRCRNYQ . Is its Library fraction below 0.0004?
NO
